Parameter: Percentage Disease Control, Test F. Scope: all listed entries.
Tested on: Botrytis cinerea
Assay: Test F: tomato Botrytis, preventive spray on tomato seedlings, disease rating
Assay type: in vivo
Conditions: 200 ppm
Numeric answer only, unit % assumed.

For reference, reported Percentage Disease Control, Test F for COC(=O)NCc1cc(-c2ccn(-c3ccc(Br)cc3)n2)ccc1Cl [Cmpd 111] stands at 95

Per the record, CCCCn1ccc(-c2ccc(Cl)c(CNC(=O)OC)c2)n1 [Cmpd 46] has Percentage Disease Control, Test F of 0

For COC(=O)NCc1cc(-n2ccc(-c3ccc(Br)cc3)n2)ccc1Cl [Cmpd 124] the compound record lists Percentage Disease Control, Test F as 0

So for COC(=O)NCc1cc(-c2ccn(-c3ccccc3)n2)ccc1Cl [Cmpd 34] , the logged Percentage Disease Control, Test F turned out to be 0

The compound listed as COC(=O)NCc1cc(-c2ccn(-c3cccc(Br)c3)n2)ccc1Cl [Cmpd 112] shows Percentage Disease Control, Test F equal to 0

get_value(item= COC(=O)NCc1cc(-c2ccn(-c3cccc(OC(F)(F)F)c3)n2)ccc1Cl [Cmpd 68] , readout=Percentage Disease Control, Test F) returns 0

***
Sure, the documented Percentage Disease Control, Test F for COC(=O)NCc1cc(-c2ccn(-c3nc(-c4ccc(C(F)(F)F)cc4)ns3)n2)ccc1Cl [Cmpd 94] is 0

Lab book: Percentage Disease Control, Test F of COC(=O)NCc1cc(-c2cc(C(F)(F)F)n(CCC[Si](C)(C)C)n2)ccc1Cl [Cmpd 45] noted as 0

So for COC(=O)NOc1cc(-c2cccc(OC(F)(F)F)c2)ccc1Cl [Cmpd 18] , the logged Percentage Disease Control, Test F turned out to be 0

The reported value for COC(=O)NCc1cc(-c2ccn(-c3cccc(F)c3)n2)ccc1Cl [Cmpd 115] in terms of Percentage Disease Control, Test F is 32

Reported Percentage Disease Control, Test F for CCCCCc1cc(-c2ccc(Cl)c(CNC(=O)OC)c2)nn1C [Cmpd 98] was 0

Briefly, Percentage Disease Control, Test F measured for COC(=O)NCc1cc(-c2ccn(-c3ccc(F)cc3)n2)ccc1Cl [Cmpd 116] : 0

---

System: Septoria tritici
Assay: Test D: wheat leaf blotch, preventive spray on wheat seedlings, disease rating
Type: in vivo
Details: 200 ppm, 100 = 100% disease control, 0 = no control relative to controls
Property label: Percentage Disease Control, Test D

Answered cases to consult:
Percentage Disease Control, Test D reading for "COC(=O)NCc1cc(-c2ccnc(-c3ccccc3)n2)ccc1Cl" : 87%

Lab book: Percentage Disease Control, Test D of "COC(=O)NCc1cc(-c2ccn(-c3ccc(C(C)=O)cc3)n2)ccc1Cl" noted as 99%

Item: "COC(=O)NCc1cc(-c2cc(C(F)(F)F)nn2CCC(C)(C)C)ccc1Cl" | Percentage Disease Control, Test D: 92%

Please turn your attention to the following entry.
Entry "COC(=O)NCc1cc(-c2cnn(Cc3ccc(C)cc3)n2)ccc1Cl" , Percentage Disease Control, Test D reported as 93%

---

System: Puccinia recondita f. sp. tritici
Assay: Test B: wheat leaf rust, preventive spray on wheat seedlings, disease rating
Assay type: in vivo
Settings: 40 ppm (*)
Marks after values point to notes of the source that are not given here.
Property label: Percentage Disease Control, Test B

Data point: COC(=O)NCc1cc(-c2ccn(-c3ccc(Br)cc3)n2)ccc1Cl [Cmpd 111] ; Percentage Disease Control, Test B = 100* %

According to the records, this compound COC(=O)NCc1cc(-n2ccc(-c3ccc(Cl)cc3)n2)ccc1Cl [Cmpd 122] displays Percentage Disease Control, Test B of 100* %

For COC(=O)NCc1cc(-c2ccn(Cc3cccc(C)c3)n2)ccc1Cl [Cmpd 71] the compound record lists Percentage Disease Control, Test B as 100* %

Value of measured Percentage Disease Control, Test B for the entry COC(=O)NCc1cc(-c2ccn(CCC#N)n2)ccc1Cl [Cmpd 31] : 0* %

Entry COC(=O)NNc1cc(-c2ccn(-c3cccc(C(F)(F)F)c3)n2)ccc1Cl [Cmpd 64] — recorded Percentage Disease Control, Test B = 100* %

---

Quick reference for Percentage Disease Control, Test B among some compounds
System: Puccinia recondita f. sp. tritici
Assay: Test B: wheat leaf rust, preventive spray on wheat seedlings, disease rating
Assay type: in vivo
Conditions: 40 ppm (*)
Marks after values point to notes of the source that are not given here.

Guide cases for Percentage Disease Control, Test B, answers given:
// returns Percentage Disease Control, Test B for "COC(=O)NCc1cc(-c2ccn(Cc3ccccc3Cl)n2)ccc1Cl" with Puccinia recondita f. sp. tritici; value = 100* %

The measured Percentage Disease Control, Test B that "COC(=O)NCc1cc(-c2ccn(-c3ccc(Cl)cc3)n2)ccc1Cl" showed for Puccinia recondita f. sp. tritici is 100* %

Param item: "COC(=O)NCc1cc(-c2ccn(-c3cccc(C)c3)n2)ccc1Cl" ; param system: Puccinia recondita f. sp. tritici; output Percentage Disease Control, Test B: 99* %

Param item: "COC(=O)NCc1cc(-n2ccc(-c3ccc(Br)cc3)n2)ccc1Cl" ; param system: Puccinia recondita f. sp. tritici; output Percentage Disease Control, Test B: 100* %

Assay Puccinia recondita f. sp. tritici, sample "COC(=O)NCc1cc(-c2ccn(-c3ccccc3C(C)=O)n2)ccc1Cl" , Percentage Disease Control, Test B read: 100* %

Response field Percentage Disease Control, Test B (Puccinia recondita f. sp. tritici) for item "COC(=O)NCc1cc(-c2nn(CCC[Si](C)(C)C)cc2Cl)ccc1Cl" : 100* %

Value sought: Percentage Disease Control, Test B, system Puccinia recondita f. sp. tritici, item "COC(=O)NCc1cc(-c2ccn(Cc3ccc(-c4ccccc4C#N)cc3)n2)ccc1Cl" . Result: 88* %

Short answer on Puccinia recondita f. sp. tritici for "COC(=O)NCc1cc(-c2cc(C(F)(F)F)n(CCC(C)(C)C)n2)ccc1Cl" , Percentage Disease Control, Test B: 99* %

Others:
So the reported Percentage Disease Control, Test B for "COC(=O)NCc1cc(-c2ccn(-c3ccc(C)cc3)n2)ccc1Cl" , on Puccinia recondita f. sp. tritici, turned out to be 100* %

The compound "COC(=O)NCc1cc(-c2ccn(Cc3cccc(OC(F)(F)F)c3)n2)ccc1Cl" , tested on Puccinia recondita f. sp. tritici, showed Percentage Disease Control, Test B of 99* %

With Puccinia recondita f. sp. tritici as the test system, "COC(=O)NCc1cc(-c2ccn(Cc3cccc(C#N)c3)n2)ccc1Cl" showed Percentage Disease Control, Test B of 93* %

Test item "COC(=O)NCc1cc(-c2ccn(-c3ccccc3C(F)(F)F)n2)ccc1Cl" ; Puccinia recondita f. sp. tritici; reported Percentage Disease Control, Test B was 99* %

The compound COC(=O)NCc1cc(-c2ccn(CC(C)Oc3ccccc3)n2)ccc1Cl (racemic) on Puccinia recondita f. sp. tritici: Percentage Disease Control, Test B was 100* %

---

// reported Percentage Disease Control, Test B for each item listed
Test system: Puccinia recondita f. sp. tritici
Assay: Test B: wheat leaf rust, preventive spray on wheat seedlings, disease rating
Assay type: in vivo
Conditions: 40 ppm (*)
Marks after values point to notes of the source that are not given here.

So the reported Percentage Disease Control, Test B for COC(=O)NCc1cc(-c2ccn(Cc3ccccc3C(F)(F)F)n2)ccc1Cl [Cmpd 62] , on Puccinia recondita f. sp. tritici, turned out to be 99* %

With Puccinia recondita f. sp. tritici as the test system, COC(=O)NCc1cc(-c2ccn(CCC(=O)c3ccc(Cl)cc3)n2)ccc1Cl [Cmpd 56] showed Percentage Disease Control, Test B of 97* %

Log: Puccinia recondita f. sp. tritici, compound COC(=O)NCc1cc(-c2ccn(-c3nc(C(C)C)ns3)n2)ccc1Cl [Cmpd 104] , Percentage Disease Control, Test B = 100* %

---

Items are presented alongside their recorded Percentage Disease Control, Test B.
Test system: Puccinia recondita f. sp. tritici
Assay: Test B: wheat leaf rust, preventive spray on wheat seedlings, disease rating
Assay type: in vivo
Conditions: 40 ppm (*)
Marks after values point to notes of the source that are not given here.

Kindly note the recorded Percentage Disease Control, Test B for "COC(=O)NCc1cc(-c2ccn(-c3cccc(C(F)(F)F)n3)n2)ccc1Cl" , which is 92* %

Lookup result for "CC[Si](C)(C)CON=C(C)c1ccc(Cl)c(CNC(=O)OC)c1" ; measured Percentage Disease Control, Test B: 100* %

Record "COC(=O)NCc1cc(-c2ncn(-c3ccc(Br)cc3)n2)ccc1Cl" . Reported Percentage Disease Control, Test B: 100* %

Further cases:
Entry under test: "COC(=O)NOc1cc(-c2cccc(OC(F)(F)F)c2)ccc1Cl" . Its Percentage Disease Control, Test B was 99* %

"COC(=O)NCc1cc(-c2ccn(Cc3ccc(OC(F)(F)F)cc3)n2)ccc1Cl" yielded Percentage Disease Control, Test B of 100* %

Query "CNC(=O)C(=NOC)c1cc(-c2ccn(-c3cccc(C(F)(F)F)c3)n2)ccc1C" yields Percentage Disease Control, Test B of 97* %

Looking up "COC(=O)NCc1cc(-c2ccn(-c3ccccc3Cl)n2)ccc1Cl" , I see its Percentage Disease Control, Test B listed as 100* %

Percentage Disease Control, Test B reading for "COC(=O)NCc1cc(-c2ccn(CCC(C)C)n2)ccc1Cl" : 95* %
